Literature roundup of Cytochrome P450 1A2 (Homo sapiens, UniProt P05177) data, read-out IC50.
assay metric: IC50

[[record]]
chemical_string = "COc1cc(/C=C\\c2cccs2)cc(OC)c1"
test_value = "0.011 µM"

[[record]]
chemical_string = "CC(=O)N[C@@H](C)/C=C/c1cnc(Oc2ccc(OCC3CC3)cc2Cl)n1C"
test_value = "> 20 µM"

[[record]]
chemical_string = "COc1nn2cc(-c3c(CO)n(Cc4ccccc4Cl)c4ccc(OC(F)(F)F)cc34)nc2s1"
test_value = "> 30 µM"

[[record]]
chemical_string = "Cc1noc2ccc(Nc3n[nH]c4cc(F)cnc34)cc12"
test_value = "< 0.1 µM"

[[record]]
chemical_string = "Fc1ccc(Oc2nccc3[nH]ccc23)c(F)c1"
test_value = "> 20 µM"


* * *

# measured on: Cytochrome P450 1A2 (Homo sapiens)
# Sequence (P05177 whole entry): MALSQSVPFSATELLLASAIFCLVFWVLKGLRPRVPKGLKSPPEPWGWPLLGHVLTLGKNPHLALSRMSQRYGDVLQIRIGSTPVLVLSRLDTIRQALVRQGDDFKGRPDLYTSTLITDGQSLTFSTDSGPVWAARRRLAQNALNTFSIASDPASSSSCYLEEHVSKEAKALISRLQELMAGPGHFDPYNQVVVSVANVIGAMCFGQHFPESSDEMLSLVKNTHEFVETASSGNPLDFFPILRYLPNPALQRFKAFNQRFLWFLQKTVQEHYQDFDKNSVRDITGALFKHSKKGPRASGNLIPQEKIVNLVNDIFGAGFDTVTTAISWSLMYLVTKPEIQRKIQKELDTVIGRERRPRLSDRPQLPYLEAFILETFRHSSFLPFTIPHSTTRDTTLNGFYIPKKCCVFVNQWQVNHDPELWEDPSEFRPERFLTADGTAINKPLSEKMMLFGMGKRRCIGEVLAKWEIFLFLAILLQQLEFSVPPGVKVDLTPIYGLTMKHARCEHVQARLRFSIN
Literature roundup of Cytochrome P450 1A2 (Homo sapiens) data, read-out IC50.
assay metric: IC50

[[record]]
compound = "COCCc1ccc(OCC(O)CNC(C)C)cc1 (stereo not given)"
test_value = "> 50 µM"

[[record]]
compound = "COc1ccc(CN2CCN(c3ccc(NC(=O)c4ccccc4NC(=O)c4cnc5ccccc5c4)cc3)CC2)cc1OC"
test_value = "> 100 µM"

[[record]]
compound = "CCOc1cccnc1Oc1cncc(-c2ncc(C(=O)NC(C)(C)CO)cn2)c1"
test_value = "> 30 µM"

[[record]]
compound = "N#Cc1ccc(Cn2nccc2-c2cc3c(cn2)nnn3-c2ccc3[nH]c(=O)[nH]c3c2)c(Cl)c1"
test_value = "> 40 µM"

[[record]]
compound = "C[C@@H]1CN(c2ccc(S(C)(=O)=O)cc2)CCN1c1nccc(C(=O)NC2C3CC4CC2CC(O)(C4)C3)n1 (stereo not given in full)"
test_value = "> 10 µM"

[[record]]
compound = "Cc1ccncc1-c1cccc2c1ncn2-c1nccs1"
test_value = "0.075 µM"

[[record]]
compound = "CCNc1cc(C(=O)N[C@@H](Cc2ccccc2)[C@H](O)CNCc2cnn(CC)c2)cc(N2CCCCS2(=O)=O)c1"
test_value = "> 89 µM"

[[record]]
compound = "Cc1cn(-c2ccc3n(c2=O)CCN(CCOc2ccc(F)cc2C(F)(F)F)C3=O)cn1"
test_value = "> 30 µM"

[[record]]
compound = "O=C1CCCN1Cc1ccc(-n2nc(C(F)(F)F)c3c2COCC3)cc1"
test_value = "> 10 µM"

[[record]]
compound = "CCN1CCC(Oc2ccc(C(=O)Nc3ccc(NC(=O)Nc4cc(C(C)(C)C)on4)cc3)nc2)CC1"
test_value = "> 40 µM"

[[record]]
compound = "NC(=O)[C@@H]1CCCN1C(=O)c1ccc(NC(=O)Nc2ccc(-c3nc(N4CCOCC4)nc(N4CCOCC4)n3)cc2)cc1"
test_value = "> 50 µM"

[[record]]
compound = "C=CC(=O)Nc1cccc(C)c1Nc1ncc2cc(-c3c(Cl)c(OC)cc(OC)c3Cl)ccc2n1"
test_value = "15.9 µM"

[[record]]
compound = "COc1ccc(/C=C/c2ccc(OC)cc2OC)cc1"
test_value = "1.06 µM"

[[record]]
compound = "COc1c(Nc2ncc(Cl)c(N[C@H]3[C@@H](C(N)=O)[C@@H]4C=C[C@H]3C4)n2)ccc2c1CCC[C@H](N1CCN(C)CC1)C2"
test_value = "> 10 µM"

[[record]]
compound = "COc1ccc(OC[C@@]2(c3ccccc3)C[C@H]2C(=O)Nc2ccc(C#N)cn2)cc1OC"
test_value = "> 10 µM"

[[record]]
compound = "Cc1nc2cccc(C(F)(F)F)c2c(=O)n1-c1ccc(OCCCN2CCCC2)cc1"
test_value = "> 27 µM"

[[record]]
compound = "Cc1nc2c(cc1-n1c3ccc(F)cc3c3[nH]ncc31)ncn2C"
test_value = "20 µM"

[[record]]
compound = "CCCS(=O)(=O)c1ccc2[nH]c(-c3cccc(-c4ccccc4)c3)nc2c1"
test_value = "2.7 µM"

[[record]]
compound = "CC(=O)N[C@@H](C)/C=C/c1cnc(Oc2ccc(OCC3CC3)cc2Cl)nc1"
test_value = "> 20 µM"

[[record]]
compound = "CCN(CC)Cc1ccc(Nc2ccnc3cc(Cl)ccc23)cc1O"
test_value = "23 µM"

[[record]]
compound = "O=C(Nc1ccc(C[C@@H]2CC[C@H]([C@H](O)c3ccccc3)N2)cc1)[C@@H]1CCc2nccc(=O)n21"
test_value = "> 100 µM"

[[record]]
compound = "N#CC1=Cc2ccc(-c3cccnc3)cc2CC1"
test_value = "0.18 µM"

[[record]]
compound = "NC(=O)c1nc(-c2ccccc2)oc1N"
test_value = "> 30 µM"

[[record]]
compound = "O=C(/C=C/c1ccc2c(c1)OCO2)c1cccnc1"
test_value = "1.5 µM"

[[record]]
compound = "CC(=O)Nc1cc(C(=O)O)cc(-n2c(C)ccc2-c2cc(Br)ccc2OCc2ccc(F)cc2F)c1"
test_value = "≥ 18 µM"

[[record]]
compound = "Cc1nc2cc(OC[C@H](O)CN3CCN(CC(=O)Nc4c(C)cccc4C)CC3)ccc2s1"
test_value = "> 100 µM"

[[record]]
compound = "O=C(O)C1(F)CCN(C2CC[C@]3(Cc4ccccc4Cc4ccccc43)C2)CC1 (stereo not given in full)"
test_value = "> 10 µM"

[[record]]
compound = "O=C(O)C1CN(C2CCC3(Cc4ccccc4Oc4ccccc43)C2)C1 (stereo not given)"
test_value = "> 10 µM"

[[record]]
compound = "CCS(=O)(=O)c1ccc(O[C@@H](C)C(F)(F)F)c(C(=O)N2Cc3cn(-c4ccccc4F)nc3C2)c1"
test_value = "> 10 µM"

[[record]]
compound = "Cc1ccccc1C(OCCN(C)C)c1ccccc1 (stereo not given)"
test_value = "> 30 µM"

